target: AgBbc1; assay: SPOT peptide array binding signal intensity (averaged, normalized) (arbitrary units (background-subtracted, floor 0; scale differs between SH3 domains)); higher = stronger binding of the SH3 domain to the peptide
PROPERTY LABEL: SPOT peptide array binding signal intensity
// response body must contain only the number

Example entries and their recorded answers appear below.
INSERT INTO measurements (binder, value_measured) VALUES
  ('ERPKRRAPPPVPKKP', 936),
  ('VRTRRRPPPPPIPST', 892),
  ('QPQRTAPKPPISAPR', 170),
  ('RRSKSLPITPKSIFN', 30.8);

// KLSRGRYGLPLSSRP : SPOT peptide array binding signal intensity value = 30
